# Tested on: UO-31 renal
# EXPERIMENTAL_PROTOCOL: NCI tumour cell line growth inhibition, 48 h
Below, each of the compounds is paired with its reported GI50 value.
ATTRIBUTE_MEASURED: GI50

COMPOUND	ASSAY_TARGET	RESULT
CN(C)CCCNC(=O)c1cc(NC(=O)c2cc(NC(=O)CCCN3c4ccccc4C=Cc4ccccc43)cn2C)cn1C	UO-31 renal	23500 nM
CCOC(=O)c1sc2ncn(Cc3cccc(Cl)c3)c(=O)c2c1C	UO-31 renal	13500 nM
COc1cc2c3c(n(CCCO)c(=O)c2cc1OC)-c1cc2c(cc1C3=O)OCO2	UO-31 renal	> 21200 nM
O=P(Oc1ccccc1)(Oc1ccccc1)C(O)c1ccccc1 (configuration not stated)	UO-31 renal	29800 nM
OCc1ccc(N(Cc2ccc(F)cc2)C2CCC2)cc1Cl	UO-31 renal	1880 nM
COC(=O)/C=C1\SC(=Nc2ccc(C(F)(F)F)cc2)N(CCc2c[nH]c3ccccc23)C1=O	UO-31 renal	1300 nM
O=C(CCl)Nc1ccccc1SCc1cc(Cl)cc2c1OCOC2	UO-31 renal	2950 nM
Cc1cc(S(=O)(=O)Nc2nnc(-c3ccco3)c(-c3ccco3)n2)c(SCc2ccccc2)cc1Cl	UO-31 renal	21700 nM
CCN(CC)c1ccc2[nH]c3c(C(N)=O)cc(=O)c(=O)c=3oc2c1	UO-31 renal	1070 nM
Cc1c(C(=O)CCl)c(=O)n(-c2ccccc2)n1C	UO-31 renal	3240 nM
COc1ccc(/C=C/C(=O)/C=C(/C=C/c2ccc(OC)c(OC)c2)OB(F)F)cc1OC	UO-31 renal	652 nM
COc1ccc(-n2c(-c3ccc(NC(=O)CCCl)cc3)nnc2-c2cc(OC)c(OC)c(OC)c2)cc1	UO-31 renal	1940 nM
